# assayed_target: PrfAWT binding to hly-DNA (Listeria monocytogenes serovar 1/2a, UniProt P22262)
# Construct: followed by residues Glu7-N237; vector-derived N-terminal tail […]; (left after thrombin cleavage; inferred from pET28a and Ni-NTA capture), removed by thrombin (N, cleaved yes)
# assay_protocol: SPR, binding of compound-pre-incubated PrfAWT to hly-promoter DNA
# applied_conditions: 200 nM protein, 37°C, read-out: IC50, reduction of binding of PrfAWT to hly-DNA
Reported IC50 values follow for various molecules

>>> print(df.to_string())
                         structure_notation                            assayed_target  experimental_result
0  O=C(O)[C@@H]1CSc2c(C3CC3)c(Cc3cnc4ccccc4c3)cc(=O)n21  PrfAWT binding to hly-DNA (Listeria monocytogenes serovar 1/2a, UniProt P22262)               ~30 µM

Ask | Let me know recorded IC50 for Cc1ccc(Cc2cc(=O)n3c(c2C2CC2)SC[C@H]3C(=O)O)c2ccccc12 , thanks.
Reply | 6 to 7 µM
